- experimental.system: Human AMPK α2β2γ1 (Homo sapiens, UniProt O43741+P54619+P54646)
- Construct: The full length cDNAs of human AMPK β2 (NM_005399.3) and human AMPK α2 (NM_006252.3); The full length cDNAs of human AMPK β2 (NM_005399.3); the full length cDNA of human AMPK γ1 (NM_002733.3); 6xHis (N); made in house; host or cells: Escherichia coli BL21 CodonPlus (DE3)-RIL (AMPK); BL21 Star (DE3) (CaMKK2)
- Sequence (P54646 whole entry): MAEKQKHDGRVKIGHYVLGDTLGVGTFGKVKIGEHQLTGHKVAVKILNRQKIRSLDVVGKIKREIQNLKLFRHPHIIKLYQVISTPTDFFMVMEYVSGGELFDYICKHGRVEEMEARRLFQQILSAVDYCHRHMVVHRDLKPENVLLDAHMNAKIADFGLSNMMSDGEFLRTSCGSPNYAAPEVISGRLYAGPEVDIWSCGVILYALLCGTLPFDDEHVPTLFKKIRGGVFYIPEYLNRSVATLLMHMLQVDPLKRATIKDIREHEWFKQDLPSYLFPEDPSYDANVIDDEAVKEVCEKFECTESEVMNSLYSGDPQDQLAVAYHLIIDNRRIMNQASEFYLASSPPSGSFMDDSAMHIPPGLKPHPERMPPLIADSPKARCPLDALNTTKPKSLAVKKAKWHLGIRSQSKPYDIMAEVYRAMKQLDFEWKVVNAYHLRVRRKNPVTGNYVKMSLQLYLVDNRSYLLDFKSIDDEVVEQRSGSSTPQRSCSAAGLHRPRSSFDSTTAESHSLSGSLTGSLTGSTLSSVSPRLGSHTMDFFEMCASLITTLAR
- Sequence (O43741 whole entry): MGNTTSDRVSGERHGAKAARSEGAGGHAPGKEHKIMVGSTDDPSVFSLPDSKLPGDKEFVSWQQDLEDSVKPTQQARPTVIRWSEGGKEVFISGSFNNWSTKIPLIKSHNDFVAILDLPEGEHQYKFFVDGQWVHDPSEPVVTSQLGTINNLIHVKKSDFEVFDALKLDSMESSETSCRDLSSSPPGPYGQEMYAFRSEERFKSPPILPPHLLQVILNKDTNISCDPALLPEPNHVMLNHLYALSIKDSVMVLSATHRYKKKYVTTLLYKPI
- Sequence (P54619 whole entry): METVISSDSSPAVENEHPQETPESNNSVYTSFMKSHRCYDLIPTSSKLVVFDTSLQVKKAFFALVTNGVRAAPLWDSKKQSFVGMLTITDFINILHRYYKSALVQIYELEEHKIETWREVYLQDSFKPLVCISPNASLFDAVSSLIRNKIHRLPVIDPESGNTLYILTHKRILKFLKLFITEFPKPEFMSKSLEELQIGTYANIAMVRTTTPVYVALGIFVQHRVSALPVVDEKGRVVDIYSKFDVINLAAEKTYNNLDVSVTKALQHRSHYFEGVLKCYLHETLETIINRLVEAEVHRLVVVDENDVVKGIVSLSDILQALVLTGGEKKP
- assay.name: Test Example 2: AMPK activator evaluation, mobility-shift kinase assay after CaMKK2 phosphorylation
- Format: biochemical
- study.conditions: compound concentration showing 150% relative to the control (100%)
Field 'label' (enum: rule met / rule not met). Set to rule met when EC150 is strictly under 8 nM; else rule not met.

Cn1cc(-c2cc(F)c3c(c2)CCC3Nc2nc3nc(O[C@@H]4CO[C@H]5[C@@H]4OC[C@H]5O)[nH]c3cc2Cl)cn1 (stereo partly drawn) = rule met
CCc1ccc(CNc2nc3nc(O[C@@H]4CO[C@H]5[C@@H]4OC[C@H]5O)[nH]c3cc2Cl)s1 = rule not met
O[C@@H]1CO[C@H]2[C@@H]1OC[C@H]2Oc1nc2nc(NCc3c(F)cc(-c4cnn(CCN5CCOCC5)c4)cc3F)c(Cl)cc2[nH]1 = rule not met
CC(=O)NC(C)(C)c1ccc(Oc2nc3nc(NCc4c(F)cccc4F)c(Cl)cc3[nH]2)cn1 = rule not met
Cn1cc(-c2cc(F)c(CNc3nc4nc(O[C@@H]5CO[C@H]6[C@@H]5OC[C@H]6O)[nH]c4cc3Cl)c(F)c2)ccc1=O = rule not met
COC/C=C/c1cc(F)c2c(c1)CCC2Nc1nc2nc(O[C@@H]3CO[C@H]4[C@@H]3OC[C@H]4O)[nH]c2cc1Cl (stereo partly drawn) = rule met

###

Each record here notes measured Emax.
- experimental.system: Human AMPK α2β2γ1 (Homo sapiens, UniProt O43741+P54619+P54646)
- Construct: The full length cDNAs of human AMPK β2 (NM_005399.3) and human AMPK α2 (NM_006252.3); The full length cDNAs of human AMPK β2 (NM_005399.3); the full length cDNA of human AMPK γ1 (NM_002733.3); 6xHis (N); made in house; host or cells: Escherichia coli BL21 CodonPlus (DE3)-RIL (AMPK); BL21 Star (DE3) (CaMKK2)
- assay.name: Test Example 2: AMPK activator evaluation, mobility-shift kinase assay after CaMKK2 phosphorylation
- Type: biochemical
- study.conditions: maximum rate of increase in activity within the measurement range, control = 100%
endpoint: Emax (%)

O[C@@H]1CO[C@H]2[C@@H]1OC[C@H]2Oc1nc2nc(NC3COc4ccccc43)c(Cl)cc2[nH]1 (stereo partly shown) [Compound I-1-11] = 512
Cc1cccc(F)c1CNc1nc2nc(O[C@@H]3CO[C@H]4[C@@H]3OC[C@H]4O)[nH]c2cc1Cl [Compound I-1-6] = 496
CC(C)(O)CCc1cc(F)c(CNc2nc3nc(O[C@@H]4CO[C@H]5[C@@H]4OC[C@H]5O)[nH]c3cc2Cl)c(F)c1 [Compound I-2-233] = 507
OC[C@@H]1C[C@H](Oc2nc3nc(NCc4c(F)cccc4F)c(Cl)cc3[nH]2)CO1 [Compound I-2-19] = 506
